test system: mouse and human plasma stability, LC/MS/MS, 180 min; test: compound stability in mouse and human plasma, late-stage follow-up, ADME assay for GPR30 and estrogen receptor ligands, biochemical (AID 623907); details: measured here: human plasma stability, 180 min; at 1 µM; stronger effect = higher value
Metric name: percent remaining (%)

                                   compound  test_value
0  COc1cc([N+](=O)[O-])cc2c1NC(C1CC=CCC1)C1CC=CC21 (stereo unspecified)         100
